B1: Intersectin-1, residues 1156 to 1213; numbered along this chain, Q15811 (parent)
chain: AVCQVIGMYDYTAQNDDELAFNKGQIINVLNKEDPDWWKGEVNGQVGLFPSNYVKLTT

- Variants of: B1
- procedure text: abundance fitness (aPCA) (normalised: wild type 0, dead -1); higher = more abundant; growth selection in yeast, the domain comes from the species named
- condition: Homo sapiens
experimental readout: abundance fitness
Reply: number alone, nothing else.

Worked set:
D17S | 0.126
E41W | -0.642
E41C | -0.787
L19G | -0.726

QUERY: Specify measured abundance fitness for Q4P .
RESULT: -0.817

QUERY: Specify measured abundance fitness for T12Q .
RESULT: -0.345
